As shown below, each of these compounds has a reported activation at 3 µM value.
Assayed target: hGABAA α1β3γ2 (Homo sapiens, UniProt P14867+P18507+P28472)
Sequence (P14867 28-456): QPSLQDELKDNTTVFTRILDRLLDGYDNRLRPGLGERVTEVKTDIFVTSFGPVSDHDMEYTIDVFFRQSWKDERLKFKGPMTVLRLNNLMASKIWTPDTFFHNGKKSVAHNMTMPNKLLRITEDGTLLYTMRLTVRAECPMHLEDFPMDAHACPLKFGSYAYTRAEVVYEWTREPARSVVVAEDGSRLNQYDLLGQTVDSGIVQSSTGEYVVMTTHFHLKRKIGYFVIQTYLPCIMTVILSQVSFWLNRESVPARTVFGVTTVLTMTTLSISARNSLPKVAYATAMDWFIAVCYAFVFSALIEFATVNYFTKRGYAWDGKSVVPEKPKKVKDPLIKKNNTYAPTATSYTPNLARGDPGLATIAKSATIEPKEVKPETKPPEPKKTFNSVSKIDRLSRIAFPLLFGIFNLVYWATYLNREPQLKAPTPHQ
Sequence (P28472 26-473): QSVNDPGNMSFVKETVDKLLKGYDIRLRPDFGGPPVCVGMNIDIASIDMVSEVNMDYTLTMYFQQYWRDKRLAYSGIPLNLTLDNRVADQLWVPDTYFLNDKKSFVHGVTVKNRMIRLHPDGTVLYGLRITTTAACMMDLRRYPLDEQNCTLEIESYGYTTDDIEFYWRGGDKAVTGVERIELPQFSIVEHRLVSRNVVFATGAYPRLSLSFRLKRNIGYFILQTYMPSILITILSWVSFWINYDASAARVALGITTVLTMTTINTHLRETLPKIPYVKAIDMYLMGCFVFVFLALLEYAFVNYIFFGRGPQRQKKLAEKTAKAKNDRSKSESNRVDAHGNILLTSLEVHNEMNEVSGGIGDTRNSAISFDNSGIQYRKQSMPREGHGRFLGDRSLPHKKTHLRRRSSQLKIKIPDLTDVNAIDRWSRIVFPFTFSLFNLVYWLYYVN
Sequence (P18507 40-475): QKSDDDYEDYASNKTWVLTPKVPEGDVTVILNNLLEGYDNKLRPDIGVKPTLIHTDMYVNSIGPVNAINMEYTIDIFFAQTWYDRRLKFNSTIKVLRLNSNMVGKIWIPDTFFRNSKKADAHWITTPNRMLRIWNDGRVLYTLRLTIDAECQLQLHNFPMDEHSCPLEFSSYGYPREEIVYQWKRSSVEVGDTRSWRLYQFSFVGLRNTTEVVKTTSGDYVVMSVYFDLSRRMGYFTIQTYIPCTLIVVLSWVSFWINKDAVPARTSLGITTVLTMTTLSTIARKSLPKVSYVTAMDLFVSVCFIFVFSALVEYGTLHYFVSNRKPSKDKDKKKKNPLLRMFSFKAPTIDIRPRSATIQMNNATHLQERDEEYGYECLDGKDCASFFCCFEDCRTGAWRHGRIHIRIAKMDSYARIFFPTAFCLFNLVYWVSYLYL
Test protocol: hGABAA α1β3γ2 IonFlux HT Agonist Assay
Assay type: cell-based
Test settings: read-out: Normalized Percentage Activation Mean
The response must be a number in % with no trailing unit.

Solved entries (count: 5):
CCN(CCN(C)C)C(=O)OC1c2nccnc2C(=O)N1c1ccc(Cl)cn1 (stereo not drawn) :: 5.89
CN(C)CCN(C)C(=O)CC1c2nccnc2C(=O)N1c1ccc(Cl)cn1 (stereo not drawn) :: 1.9
CCCN(CCNC)C(=O)Cc1c(-c2ccc(C)cc2)nc2ccc(C)cn12 :: 2.79
CCCN(CCNC)C(=O)Cc1c(-c2ccc(Cl)cc2)nc2ccc(Cl)cn12 :: 2.32
CCN(CCNC)C(=O)CC1c2nccnc2C(=O)N1c1ccc(Cl)cn1 (stereo not drawn) :: 2.28

Consider the record given below.
Which value of activation at 3 µM has been reported for "CNCCN(C)C(=O)Cc1c(-c2ccc(C)cc2)nc2ccc(C)cn12" in the records?
2.34

Data provenance is patent US12084451B2.
